- targetDesc: Thyrotropin receptor (Homo sapiens)
- experiment: qHTS assay to identify small molecule agonists of the thyroid stimulating hormone receptor (TSHR) signaling pathway (AID 1224843); further: on the % scale 0 is the no-effect control and ±100 the full control effect; nearly all actives have a fitted effect of over 45% in size
- experimentalParameters: TSHR-HEK293 cells, cAMP HTRF, agonist mode, 30 min; series mostly up to 92.4 µM
Results filed as inconclusive are left out. Activity calls are given as the source filed them. The call rests on the fitted dose curve.

# molecule, activation
data = [
    ("CCC(=O)O[C@]1(C(=O)COC)[C@@H](C)C[C@H]2[C@@H]3CCC4=CC(=O)C=C[C@]4(C)C3(F)[C@@H](O)C[C@@]21C (some centres undefined)", "inactive"),
    ("Nc1ncnc2c1ncn2[C@@H]1O[C@H](CO)[C@@H](O)[C@H]1O", "inactive"),
    ("c1ccc(CCNc2nc(-c3ccccc3)cs2)cc1", "inactive"),
    ("CCCCCCCCCCCCSCCOCCO", "inactive"),
    ("CC1=CC(=C(c2ccc(N)cc2)c2ccc(N)cc2)C=CC1=N", "3.86% [at 8.39 µM] (inactive)"),
    ("CC(=O)OCC(=O)[C@@]1(O)CC[C@H]2[C@@H]3CCC4=CC(=O)C=C[C@]4(C)[C@@]3(F)[C@@H](O)C[C@@]21C", "inactive"),
    ("O=C(Cl)c1cc(Cl)cc(Cl)c1", "inactive"),
    ("O=C(O)c1cccc(C(=O)O)c1C(=O)O", "inactive"),
    ("O=C(NC1CCN(CCc2c[nH]c3ccccc23)CC1)c1ccccc1", "inactive"),
]

----------
- targetDesc: Cytochrome P450 2C19 (Homo sapiens) (UniProt P33261)
- Sequence (P33261 whole entry, looked up): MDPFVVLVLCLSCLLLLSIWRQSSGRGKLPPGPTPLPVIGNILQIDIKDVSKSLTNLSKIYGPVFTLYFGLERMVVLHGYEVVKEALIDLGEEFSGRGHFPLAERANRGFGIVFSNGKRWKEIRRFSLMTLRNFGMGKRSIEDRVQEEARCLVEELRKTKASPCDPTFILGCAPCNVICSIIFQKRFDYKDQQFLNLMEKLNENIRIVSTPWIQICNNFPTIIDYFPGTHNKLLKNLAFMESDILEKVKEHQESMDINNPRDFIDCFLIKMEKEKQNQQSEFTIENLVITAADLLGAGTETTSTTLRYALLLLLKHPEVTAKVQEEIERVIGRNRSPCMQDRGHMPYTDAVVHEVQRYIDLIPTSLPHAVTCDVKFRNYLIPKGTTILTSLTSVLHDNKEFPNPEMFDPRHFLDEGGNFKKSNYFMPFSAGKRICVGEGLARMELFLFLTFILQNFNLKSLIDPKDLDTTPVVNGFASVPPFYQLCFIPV
- experiment: Cytochrome P450 Family 2 Subfamily C Member 19 (CYP2C19) small molecule antagonists: luciferase reporter qHTS assay (AID 1671197); further: nearly all actives have a fitted effect of over 65% in size
- experimentalParameters: P450-Glo CYP2C19 enzyme, luciferin luminescence, 1 h; series mostly up to 115 µM
Inconclusive results are not listed. Calls of active or inactive are those of the source. The call rests on the fitted dose curve; in most records, active means well fitted inhibition curve with a large enough effect in the repeat runs; inconclusive means weak or mixed curves; inactive means no such curve, though single readings can be large or run the other way.
Labels: true for active, false for inactive

# molecule, classLabel
measured = [
    ("CC(O)C(C)O (centres undefined)", "false"),
    ("NCCOCCOCCN", "false"),
    ("CCCCCCCCS", "false"),
    ("CCCCOC(=O)C(C)Oc1ccc(Oc2ccc(C(F)(F)F)cn2)cc1 (centres undefined)", "true"),
    ("Cc1ccc(NC=O)c(C)c1", "false"),
    ("CCCc1ccc(OC)cc1", "true"),
    ("CC1=C(C)C(=O)C(C(CCCCCC(=O)O)c2ccccc2)=C(C)C1=O (centres undefined)", "true"),
    ("CCCCCCCCCC(C)C=O (centres undefined)", "false"),
    ("CCCCC(CC)COCCC#N (centres undefined)", "false"),
    ("CCC1=C(C)CN(C(=O)NCCc2ccc(S(=O)(=O)NC(=O)NC3CCC(C)CC3)cc2)C1=O (centres undefined)", "false"),
    ("C=C(C)C(=O)OCCCCCCCCCCOC(=O)C(=C)C", "false"),
    ("CCOCCn1c(N2CCCN(C)CC2)nc2ccccc21", "false"),
    ("CC/C=C\\CCO", "false"),
    ("CCC(=O)O[C@]1(C(=O)COC)[C@@H](C)C[C@H]2[C@@H]3CCC4=CC(=O)C=C[C@]4(C)C3(F)[C@@H](O)C[C@@]21C (some centres undefined)", "false"),
    ("Cc1cc(N)n(-c2ccccc2)n1", "true"),
    ("OCC(O)c1ccccc1 (centres undefined)", "false"),
    ("O=C1OC(=O)C2CC=CCC12 (centres undefined)", "true"),
    ("O=[N+]([O-])c1ccc(Cl)cc1Cl", "false"),
    ("C=CCCC", "false"),
    ("CCOc1ccc2c(c1)C(C)CC(C)(C)N2 (centres undefined)", "true"),
    ("CC(O)CN (centres undefined)", "false"),
    ("O=C(OCCOCCOCCOC(=O)c1ccccc1)c1ccccc1", "true"),
    ("O=c1[nH][nH]c2ccccc12", "true"),
    ("CCCc1nc(C)c2c(=O)[nH]c(-c3cc(S(=O)(=O)N4CCN(CC)CC4)ccc3OCC)nn12", "false"),
    ("CCc1ccc(C(=O)C(C)CN2CCCCC2)cc1 (centres undefined)", "true"),
    ("C/C(=C(\\CCO)SS/C(CCO)=C(\\C)N(C=O)Cc1cnc(C)nc1N)N(C=O)Cc1cnc(C)nc1N", "false"),
    ("CC1(C)CC(=O)CC(C)(C)N1", "false"),
    ("O=C(C1CCCCC1)N1CC(=O)N2CCCc3ccccc3C2C1 (centres undefined)", "true"),
    ("O=C(O)c1c2ccccc2cc2ccccc12", "false"),
]

----------
- experiment: qHTS assay to test for compound auto fluorescence at 590 nm (red) in HepG2 cell free culture (AID 720684); further: on the % scale 0 is the no-effect control and ±100 the full control effect
- experimentalParameters: cell-free medium autofluorescence, red 540/590 nm; series mostly up to 91.3 µM
- Description: U.S. Tox21 Program National Center for Advancing Translational Sciences [NCATS] NIH Chemical Genomics Center [NCGC] U.S. Environmental Protection Agency [EPA] National Institutes of Environmental Health Sciences [NIEHS] National Toxicology Program [NTP] U.S. Food and Drug Administration [FDA] Tox21 Assay Overview: Compound auto fluorescence often interferes with screening of the compound library against various biological targets and signaling pathways. […] This assay includes the red fluorescence data. […]
The source made the active and inactive calls. Calls come from the whole dose curve; as a rule, active = well fitted curve in the direction sought with a large enough effect in the repeat runs; inconclusive = weak or mixed curves; inactive = flat fitted curve, though single readings scatter.
propertyName: fluorescence, % of Rose Bengal

# compound, measValue
rows = [
    ("CCn1nc(Cc2ccccc2)cc1C1CCN(C[C@H]2C[C@H](N(C)[C@@H](C(=O)O)C(C)C)C[C@@H]2c2cccc(F)c2)CC1", "inactive"),
    ("CC(CN=Cc1ccccc1O)N=Cc1ccccc1O (stereo unspecified)", "inactive"),
    ("O=C(Cl)c1ccc(F)c(Cl)c1", "inactive"),
    ("COC=O", "-0.0589% [at 9.17 µM] (inactive)"),
    ("CCOc1ccc(NC(C)=O)cc1N", "inactive"),
    ("Cc1cc(SC2=C(O)C[C@@](CCc3ccc(N)cc3)(C(C)C)OC2=O)c(C(C)(C)C)cc1CO", "inactive"),
]

----------
- targetDesc: Cytochrome P450 2D6 (Homo sapiens) (UniProt P10635)
- Sequence (P10635 whole entry, looked up): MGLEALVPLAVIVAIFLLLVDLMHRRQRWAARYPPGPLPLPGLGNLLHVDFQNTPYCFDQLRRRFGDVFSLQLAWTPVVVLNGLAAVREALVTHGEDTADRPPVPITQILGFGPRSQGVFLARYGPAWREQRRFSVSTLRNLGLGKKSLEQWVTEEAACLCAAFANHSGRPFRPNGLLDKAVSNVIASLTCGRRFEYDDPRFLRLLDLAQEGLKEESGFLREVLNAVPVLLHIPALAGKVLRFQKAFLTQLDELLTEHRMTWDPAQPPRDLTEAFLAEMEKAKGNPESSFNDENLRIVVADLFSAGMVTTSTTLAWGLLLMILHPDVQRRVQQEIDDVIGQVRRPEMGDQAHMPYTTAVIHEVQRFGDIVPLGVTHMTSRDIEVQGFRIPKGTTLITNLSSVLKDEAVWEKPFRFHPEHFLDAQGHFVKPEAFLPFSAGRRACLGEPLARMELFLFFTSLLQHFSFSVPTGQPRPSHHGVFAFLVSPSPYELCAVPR
- experiment: Cytochrome P450 Family 2 Subfamily D Member 6 (CYP2D6) small molecule antagonists: luciferase reporter qHTS assay (AID 1671196); further: nearly all actives have a fitted effect of over 50% in size
- experimentalParameters: P450-Glo CYP2D6 enzyme assay, luciferin luminescence, 1 h; series mostly up to 115 µM
Inconclusive results are not listed. Calls of active or inactive are those of the source. Calls come from the whole dose curve; as a rule, active = well fitted inhibition curve with a large enough effect in the repeat runs; inconclusive = weak or mixed curves; inactive = no such curve, though single readings can be large or run the other way.
Labels: active, inactive

# compound, classLabel
records = [
    ("CCCCCCCCOCCCN", "active"),
    ("CC1=C(C)C(=O)C(CCCCC#CCCCC#CCO)=C(C)C1=O", "active"),
    ("COC(=O)C(C)(C)C", "inactive"),
    ("O=c1[nH][nH]c2ccccc12", "inactive"),
    ("O=C(NC1CCN(CCc2c[nH]c3ccccc23)CC1)c1ccccc1", "active"),
    ("CCC(C(=O)O)c1ccc(N2Cc3ccccc3C2=O)cc1 (configuration not stated)", "active"),
    ("Oc1ccc(CCNCCCCCCNCCc2ccccc2)cc1O", "active"),
    ("Cc1ccc2ccccc2c1[N+](=O)[O-]", "inactive"),
    ("CCCCCCC/C=C/C=O", "active"),
    ("C/C=C1\\[C@H]2C=C(C)C[C@]1(N)c1ccc(=O)[nH]c1C2", "inactive"),
    ("CC(=O)OCC(=O)[C@@]1(O)CC[C@H]2[C@@H]3CCC4=CC(=O)C=C[C@]4(C)[C@@]3(F)[C@@H](O)C[C@@]21C", "inactive"),
    ("CC(C)NC(=O)c1ccccc1N", "inactive"),
    ("CC(=O)CC/C=C(\\C)CC/C=C(\\C)CC/C=C(\\C)CCC=C(C)C", "inactive"),
    ("COc1cccc([C@H](O)C2CCN(CCc3ccc(F)cc3)CC2)c1OC", "active"),
    ("C1CCN(CN2CCCCC2)CC1", "active"),
    ("Sc1nc(S)nc(S)n1", "inactive"),
    ("C[Si](C)(C)O[Si](C)(C)O[Si](C)(C)C", "inactive"),
    ("Cc1ccc(NC=O)c(C)c1", "inactive"),
    ("Cc1c(Nc2ncccc2C(=O)O)cccc1C(F)(F)F", "inactive"),
    ("O=C1c2ccccc2C(=O)C1c1ccc2cc(S(=O)(=O)O)cc(S(=O)(=O)O)c2n1", "inactive"),
    ("Clc1nc2ccccc2nc1Cl", "active"),
    ("CC(C)(C)N", "inactive"),
    ("CCOC(OCC)OCC", "inactive"),
    ("CC(=O)S[C@H](C(=O)N[C@H]1Cc2ccccc2[C@H]2CCC[C@@H](C(=O)O)N2C1=O)C(C)C", "inactive"),
    ("CC(C)(C)c1cc(C=O)cc(C(C)(C)C)c1O", "inactive"),
    ("O=C(O)c1cccnc1Nc1cccc(C(F)(F)F)c1", "inactive"),
    ("O=C(O)CCc1nc2ccccc2[nH]1", "inactive"),
]
